Entry source: paper PMC7904806

# Test system: A2780
# ASSAY_PROTOCOL: MTT cytotoxicity assay, A2780
# Assay type: cell-based
# CONDITION_PARAMETERS: A2780, lowest IC50 of the panel
MEASUREMENT_LABEL: pIC50
Units for pIC50: none; it is -log10 of a concentration expressed in mol/L.

input: What reported pIC50 corresponds to COc1ccc2[nH]c3c(c2c1)CCN[C@]31CS[C@@H]2c3c(OC(C)=O)c(C)c4c(c3[C@H](COC1=O)N1[C@@H]2[C@H]2c3c(cc(C)c(OC)c3O)C[C@@H]([C@@H]1O)N2C)OCO4 on A2780?
output: 9.34
